pIC50 reference
- Measured target: catalytic domain (JH1) of JAK2 protein (Homo sapiens)
- Construct: phosphorylated on the tyrosine residue by catalytic domain (JH1) of JAK2 protein
- Sequence (O60674 849-1124 limits assumed): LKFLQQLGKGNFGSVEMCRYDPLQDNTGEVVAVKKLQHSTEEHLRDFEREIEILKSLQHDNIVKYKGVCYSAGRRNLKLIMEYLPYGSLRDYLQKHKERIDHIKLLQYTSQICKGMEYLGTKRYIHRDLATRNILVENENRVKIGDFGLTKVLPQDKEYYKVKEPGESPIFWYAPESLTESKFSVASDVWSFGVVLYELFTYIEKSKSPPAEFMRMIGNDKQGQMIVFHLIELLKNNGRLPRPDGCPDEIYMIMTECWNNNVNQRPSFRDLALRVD
- Assay protocol: JAK2 (JH1) Enzymatic Assay at ATP=Km (30 μM), TR-FRET
- Conditions: 30 μM ATP (=Km), 60 min at 25° C., read-out: V617F ENZ 30 μM
pIC50: −log10 of the molar value.

Use the examples below as a reference point.
{"columns": ["Compound", "pIC50"],
 "data": [
  ["CNc1ncc(-c2cccc(-c3cnn(C4CN(Cc5csc(C(=O)N(C)CC(F)(F)F)n5)C4)c3)c2OC)c2cc(NC(=O)C3CC3)ncc12 [Example 5]", "< 6.00"],
  ["COc1c(-c2cnn(C3CN(Cc4ccccn4)C3)c2)cccc1-c1cnc(N)c2cnc(NC(=O)C3CC3)cc12 [Example 21]", "6.30 to 7.00"],
  ["COc1c(-c2cnn(C3CN(Cc4cccc(C(=O)N5CCC(F)(F)C5)n4)C3)c2)cccc1-c1cnc(N)c2cnc(NC(=O)C3CC3)cc12 [Example 19]", "7.00 to 8.00"],
  ["COc1c(-c2cnn(C3CN(Cc4cccc(C(=O)N(C)C)n4)C3)c2)cccc1-c1cnc(N)c2cnc(NC(=O)C3CC3)cc12 [Example 16]", "7.00 to 8.00"]
]}

query: Recorded pIC50 for CNc1ncc(-c2cccc(-c3cnn(C4CN(Cc5cccc(C(=O)N(C)C6CC6)n5)C4)c3)c2OC)c2cc(NC(=O)C3CC3)ncc12 [Example 2] , please?
result: < 6.00

query: Recorded pIC50 for CNc1ncc(-c2cccc(-c3cnn(C4CN(Cc5cccc(C(=O)N6CCCC6)n5)C4)c3)c2OC)c2cc(NC(=O)C3CC3)nnc12 [Example 15] , please?
result: < 6.00

###

- Measured target: pseudo-kinase domain (JH2) of human V617F mutant JAK2 (Homo sapiens, UniProt O60674, F794H/V617F/W659A/W777A)
- Construct: pseudo-kinase domain (JH2, amino-acids 536-812 with 3 surface mutations W659A, W777A, F794H)
- Sequence (O60674 536-812 V617F/W659A/W777A/F794H): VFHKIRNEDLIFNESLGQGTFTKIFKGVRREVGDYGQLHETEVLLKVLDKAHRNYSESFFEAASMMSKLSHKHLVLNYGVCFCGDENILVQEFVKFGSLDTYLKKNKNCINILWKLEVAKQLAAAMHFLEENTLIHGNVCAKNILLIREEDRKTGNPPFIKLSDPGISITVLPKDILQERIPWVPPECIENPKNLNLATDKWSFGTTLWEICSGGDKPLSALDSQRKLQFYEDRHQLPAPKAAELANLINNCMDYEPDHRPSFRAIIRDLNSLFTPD
- Assay protocol: JAK2 LanthaScreen JH2-V617F Binding Assay
- Conditions: 50 nM Fluorescent JAK2-JH2 Tracer, 1 hour at 25° C., read-out: JH2 BIND V617F
Observation type: IC50

Use the examples below as a reference point.
{"columns": ["Molecule", "Result"],
 "data": [
  ["CNc1ncc(-c2cccc(-c3cnn(C4CN(Cc5csc(C(=O)N(C)CC(F)(F)F)n5)C4)c3)c2OC)c2cc(NC(=O)C3CC3)ncc12", "10 to 100 nM"],
  ["CNc1ncc(-c2cccc(-c3cnn(C4CN(Cc5cccc(C(=O)N(C)C)n5)C4)c3)c2OC)c2cc(NC(=O)C3CC3)ncc12", "≤ 10 nM"],
  ["CNc1ncc(-c2cccc(-c3cnn(C4CN(Cc5cccc(C(F)F)n5)C4)c3)c2OC)c2cc(NC(=O)C3CC3)ncc12", "≤ 10 nM"],
  ["CNc1ncc(-c2cccc(-c3cnn(C4CN(CC56CCCC(C(=O)N(C)C)(C5)C6)C4)c3)c2OC)c2cc(NC(=O)C3CC3)ncc12", "10 to 100 nM"],
  ["CNc1ncc(-c2cccc(-c3cnn(C4CN(Cc5cccc(C(=O)N6CCCC6)n5)C4)c3)c2OC)c2cc(NC(=O)C3CC3)nnc12", "≤ 10 nM"]
]}

query: Recorded IC50 for COc1c(-c2cnn(C3CN(Cc4ccccn4)C3)c2)cccc1-c1cnc(N)c2cnc(NC(=O)C3CC3)cc12 , please?
result: ≤ 10 nM

query: Recorded IC50 for CNc1ncc(-c2cccc(-c3cnn(C4CN(Cc5cccc(C(=O)N(C)CC(F)(F)F)n5)C4)c3)c2OC)c2cc(NC(=O)C3CC3)nnc12 , please?
result: ≤ 10 nM

query: Recorded IC50 for COC(=O)c1cccc(CN2CC(n3cc(-c4cccc(-c5cnc(NC(C)=O)c6cnc(NC(=O)C7CC7)cc56)c4OC)cn3)C2)n1 , please?
result: ≤ 10 nM

Data origin: patent US20250163059A1
